molecular target: PBRM1 BD5 (Homo sapiens); construct: PBRM1 BD5; experiment: BROMOscan PBRM1 BD5
Sequence (Q86U86 653-763 limits assumed): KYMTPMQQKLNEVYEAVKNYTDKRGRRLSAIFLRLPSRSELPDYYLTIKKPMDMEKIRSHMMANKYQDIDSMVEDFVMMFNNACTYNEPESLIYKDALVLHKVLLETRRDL
pKd: −log10 of the molar value.
observationType: pKd

query: So what does the record say about pKd for Cc1cc(-c2nc3ccccc3n2C[C@@H]2CCCN(C(=O)C3CCN(C(C)C)CC3)C2)cn(C)c1=O ?
result: < 4.50

---

Target: BAZ2B (Homo sapiens)
Construct: ≥2000-fold selectivity over all 20 non-BET bromodomains tested
Sequence (Q9UIF8 2060-2164 limits assumed): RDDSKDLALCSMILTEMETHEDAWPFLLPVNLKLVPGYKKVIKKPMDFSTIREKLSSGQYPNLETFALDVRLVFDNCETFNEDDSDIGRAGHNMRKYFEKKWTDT
Test: BROMOscan BAZ2B
observationType: Kd

query: So what does the record say about Kd for Cc1cc(-c2nc3ccccc3n2C[C@@H]2CCCN(C(=O)C3CCN(C(C)C)CC3)C2)cn(C)c1=O ?
result: > 31.6 µM

---

test: CLND kinetic aqueous solubility; settings: aqueous (buffer not specified)
observationType: solubility

query: So what does the record say about solubility for Cc1cc(-c2nc3ccccc3n2C[C@@H]2CCCNC2)cn(C)c1=O ?
result: ≥ 0.152 mg/mL

---

target: CREBBP (Homo sapiens); construct: ≥2000-fold selectivity over all 20 non-BET bromodomains tested; experiment: BROMOscan CREBBP
Sequence (Q92793 1085-1192 limits assumed): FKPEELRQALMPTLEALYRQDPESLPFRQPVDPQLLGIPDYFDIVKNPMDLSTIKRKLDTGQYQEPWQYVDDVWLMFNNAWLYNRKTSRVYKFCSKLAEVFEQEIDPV
observationType: Kd (µM)
Value expressed in µM; do not type the unit.

query: Test system CREBBP (Homo sapiens); read-out Kd; what value for Cc1cc(-c2nc3ccccc3n2C[C@@H]2CCCN(C(=O)C3CCN(C(C)C)CC3)C2)cn(C)c1=O ?
result: 20

---

Target: BRPF1 (Homo sapiens)
Construct: ≥2000-fold selectivity over all 20 non-BET bromodomains tested
Sequence (P55201 628-732 limits assumed): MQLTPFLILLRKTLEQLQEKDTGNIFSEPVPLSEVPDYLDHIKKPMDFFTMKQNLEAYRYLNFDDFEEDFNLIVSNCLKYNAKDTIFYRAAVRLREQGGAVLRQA
Test: BROMOscan BRPF1
observationType: pKd
Keep it numeric: pKd is minus log10 of the concentration in mol/L.

query: Test system BRPF1 (Homo sapiens); read-out pKd; what value for Cc1cc(-c2nc3ccccc3n2C[C@@H]2CCCN(C(=O)C3CCN(C(C)C)CC3)C2)cn(C)c1=O ?
result: 4.80

---

solubility listing for selected compounds.
assay: CAD aqueous solubility

{"molecularString": "Cc1cc(-c2nc3ccccc3n2C[C@@H]2CCCN(C(=O)c3cnc[nH]3)C2)cn(C)c1=O", "endpointValue": "≥ 160 µg/mL"}

query: So what does the record say about solubility for Cc1cc(-c2nc3ccccc3n2C[C@@H]2CCCN(C(=O)C3CCOCC3)C2)cn(C)c1=O ?
result: ≥ 245 µg/mL

query: So what does the record say about solubility for Cc1cc(-c2nc3ccccc3n2C[C@@H]2CCCN(C(=O)CCCN)C2)cn(C)c1=O ?
result: 113 µg/mL

query: So what does the record say about solubility for Cc1cc(-c2nc3ccccc3n2C[C@@H]2CCCN(C(=O)C3CNC3)C2)cn(C)c1=O ?
result: ≥ 169 µg/mL

---

chromatographic logD listing for selected molecules.
experiment: Chromatographic LogD at pH 7.4; settings: pH 7.4
Give your answer as a number; write no unit.

{"molecule": "Cc1cc(-c2nc3ccccc3n2C[C@@H]2CCCN(C(=O)C3CCNCC3)C2)cn(C)c1=O", "chromatographic logD": 1.3}
{"molecule": "CC(=O)N1CCC[C@@H](Cn2c(-c3cc(C)c(=O)n(C)c3)nc3ccccc32)C1 [(S)-12]", "chromatographic logD": 2.2}
{"molecule": "Cc1cc(-c2nc3ccccc3n2C[C@@H]2CCCN(C(=O)C3CNC3)C2)cn(C)c1=O", "chromatographic logD": 1.2}
{"molecule": "CC(=O)N1CCC(C(=O)N2CCC[C@@H](Cn3c(-c4cc(C)c(=O)n(C)c4)nc4ccccc43)C2)CC1", "chromatographic logD": 2.2}
{"molecule": "Cc1cc(-c2nc3ccccc3n2C[C@@H]2CCCN(C(=O)[C@H]3CCNC3)C2)cn(C)c1=O", "chromatographic logD": 1.3}

Field: next molecule
query: So what does the record say about chromatographic logD for Cc1cc(-c2nc3ccccc3n2C[C@@H]2CCCN(C(=O)CCCN)C2)cn(C)c1=O ?
result: 1.2
